# PROCEDURE_TEXT: Cytotoxicity against MDCK cells assessed as alteration in cell morphology after 3 days by microscopic method
# Assay type: cell-based, Canis lupus familiaris
# TEST_CONDITIONS: dog
QUANTITY: MCC at 72 h

Return reported MCC at 72 h. Input molecule: CC(=O)N[C@H]1[C@H](O[C@@H]2c3ccc(c(Cl)c3)Oc3cc4cc(c3O)Oc3ccc(cc3Cl)C[C@H]3NC(=O)[C@H](n5cc(COC[C@H]6O[C@@H]7OC(C)(C)O[C@@H]7[C@H]7OC(C)(C)O[C@H]76)nn5)c5ccc(O)c(c5)Oc5cc(O)cc(c5)[C@H](NC3=O)C(=O)N[C@H]4C(O)N[C@H]3C(=O)N[C@H]2C(=O)N[C@@H](C(=O)O)c2cc(O)cc(O)c2-c2cc3ccc2O)O[C@H](CO)[C@@H](O)[C@@H]1O (stereo partly specified)
≥ 100 µM

###

# System: H3N2 subtype
# PROCEDURE_TEXT: Antiviral activity against Influenza A virus A/HK/7/87(H3N2) infected in MDCK cells assessed as reduction in virus-induced cytopathic effect after 3 days by microscopic method
# Type: functional, organism-based
# TEST_CONDITIONS: A/Hong Kong/7/1987(H3N2), 72 h
QUANTITY: pEC50
pEC50 (log units): -log10 of the concentration in mol/L.

MOLECULE	QUANTITY	MEASURED_NUMBER
CCCCCCOCc1cn([C@H]2C(=O)N[C@@H]3Cc4ccc(c(Cl)c4)Oc4cc5cc(c4O)Oc4ccc(cc4Cl)[C@@H](O[C@@H]4O[C@H](CO)[C@@H](O)[C@H](O)[C@H]4NC(C)=O)[C@H]4NC(=O)[C@H](NC(O)[C@@H]5NC(=O)[C@@H](NC3=O)c3cc(O)cc(c3)Oc3cc2ccc3O)c2ccc(O)c(c2)-c2c(O)cc(O)cc2[C@H](C(=O)O)NC4=O)nn1 (stereo partly drawn)	pEC50	4.82

Return reported pEC50. Input molecule: CC(N)C12CC3CC(CC(C3)C1)C2 (stereo not drawn)
6.70

###

# PROCEDURE_TEXT: Cytotoxicity against human A549 cells assessed as changes in cell morphology after 3 days by microscopic method
# Format: cell-based
QUANTITY: MCC at 72 h (µM)
A number alone suffices; assume µM.

MOLECULE	MEASURED_NUMBER
CCCCCCSC1=C(SCCCCCC)C(=O)N([C@H]2C(=O)N[C@@H]3Cc4ccc(c(Cl)c4)Oc4cc5cc(c4O)Oc4ccc(cc4Cl)[C@@H](O[C@@H]4O[C@H](CO)[C@@H](O)[C@H](O)[C@H]4NC(C)=O)[C@H]4NC(=O)[C@H](NC(O)[C@@H]5NC(=O)[C@@H](NC3=O)c3cc(O)cc(c3)Oc3cc2ccc3O)c2ccc(O)c(c2)-c2c(O)cc(O)cc2[C@H](C(=O)O)NC4=O)C1=O (some centres undefined)	50

Alright, here's another molecule for you.
Return reported MCC at 72 h. Input molecule: CCCCCCCCCCCCS(=O)(=O)N[C@H]1C(=O)N[C@@H]2Cc3ccc(c(Cl)c3)Oc3cc4cc(c3O)Oc3ccc(cc3Cl)[C@@H](O[C@@H]3O[C@H](CO)[C@@H](O)[C@H](O)[C@H]3NC(C)=O)[C@H]3NC(=O)[C@H](NC(O)[C@@H]4NC(=O)[C@@H](NC2=O)c2cc(O)cc(c2)Oc2cc1ccc2O)c1ccc(O)c(c1)-c1c(O)cc(O)cc1[C@H](C(=O)O)NC3=O (some centres undefined)
50

###

# PROCEDURE_TEXT: Selectivity index, ratio of MCC for MDCK cells to EC50 for Influenza B virus B/HK/05/72 infected in MDCK cells assessed as reduction in virus-induced cytopathic effect by microscopic method
# Format: toxicity, cell-based
# TEST_CONDITIONS: dog, read-out: Selectivity Index
Each item that follows carries a reported selectivity ratio.
// return just the number, without any unit appended

COMPOUND	MEASURED_NUMBER
CCCCCCCCSC1=C(SCCCCCCCC)C(=O)N(Cc2cn(C3C(=O)N[C@@H]4Cc5ccc(c(Cl)c5)Oc5cc6cc(c5O)Oc5ccc(cc5Cl)[C@@H](O[C@@H]5O[C@H](CO)[C@@H](O)[C@H](O)[C@H]5NC(C)=O)[C@H]5NC(=O)[C@H](NC(O)[C@@H]6NC(=O)[C@@H](NC4=O)c4cc(O)cc(c4)Oc4cc3ccc4O)c3ccc(O)c(c3)-c3c(O)cc(O)cc3[C@H](C(=O)O)NC5=O)nn2)C1=O (some centres not stated)	10

Alright, here's another compound for you.
Return reported selectivity ratio. Input compound: CCCCSC1=C(SCCCC)C(=O)N(CCOCCOCCOCCOCc2cn(C3C(=O)N[C@@H]4Cc5ccc(c(Cl)c5)Oc5cc6cc(c5O)Oc5ccc(cc5Cl)[C@@H](O[C@@H]5O[C@H](CO)[C@@H](O)[C@H](O)[C@H]5NC(C)=O)[C@H]5NC(=O)[C@H](NC(O)[C@@H]6NC(=O)[C@@H](NC4=O)c4cc(O)cc(c4)Oc4cc3ccc4O)c3ccc(O)c(c3)-c3c(O)cc(O)cc3[C@H](C(=O)O)NC5=O)nn2)C1=O (some centres not stated)
16

###

# System: MDCK
# PROCEDURE_TEXT: Cytotoxicity against MDCK cells assessed as reduction in cell viability after 3 days by MTS assay
# Assay type: cell-based, Canis lupus familiaris
# TEST_CONDITIONS: dog, mdck, 72 h
QUANTITY: CC50
Give the number first and the unit second.

COMPOUND	QUANTITY	RESULT
CCCCCCCCCCCCSC1=C(SCCC)C(=O)N([C@H]2C(=O)N[C@@H]3Cc4ccc(c(Cl)c4)Oc4cc5cc(c4O)Oc4ccc(cc4Cl)[C@@H](O[C@@H]4O[C@H](CO)[C@@H](O)[C@H](O)[C@H]4NC(C)=O)[C@H]4NC(=O)[C@H](NC(O)[C@@H]5NC(=O)[C@@H](NC3=O)c3cc(O)cc(c3)Oc3cc2ccc3O)c2ccc(O)c(c2)-c2c(O)cc(O)cc2[C@H](C(=O)O)NC4=O)C1=O (some centres not stated)	CC50	29 µM

Alright, here's another compound for you.
Return reported CC50. Input compound: CCCSC1=C(SCCC)C(=O)N(CCOCCOCCOCCOCc2cn(C3C(=O)N[C@@H]4Cc5ccc(c(Cl)c5)Oc5cc6cc(c5O)Oc5ccc(cc5Cl)[C@@H](O[C@@H]5O[C@H](CO)[C@@H](O)[C@H](O)[C@H]5NC(C)=O)[C@H]5NC(=O)[C@H](NC(O)[C@@H]6NC(=O)[C@@H](NC4=O)c4cc(O)cc(c4)Oc4cc3ccc4O)c3ccc(O)c(c3)-c3c(O)cc(O)cc3[C@H](C(=O)O)NC5=O)nn2)C1=O (some centres not stated)
38 µM

###

# Tested on: Human coronavirus 229E
# PROCEDURE_TEXT: Antiviral activity against Human coronavirus 229E infected in human A549 cells assessed as reduction in virus RNA level after 3 days by qRT-PCR method
# Format: functional
# TEST_CONDITIONS: A549, 72 h
Could you please mark 1 (yes) for values of EC99 below 10 µM and 0 (no) for values at or above it?

# example entries with known answers
COMPOUND	ASSIGNED_CLASS
CCCCCCOCc1cn(CCOCCOCCOCCOCc2cn([C@H]3C(=O)N[C@@H]4Cc5ccc(c(Cl)c5)Oc5cc6cc(c5O)Oc5ccc(cc5Cl)[C@@H](O[C@@H]5O[C@H](CO)[C@@H](O)[C@H](O)[C@H]5NC(C)=O)[C@H]5NC(=O)[C@H](NC(O)[C@@H]6NC(=O)[C@@H](NC4=O)c4cc(O)cc(c4)Oc4cc3ccc4O)c3ccc(O)c(c3)-c3c(O)cc(O)cc3[C@H](C(=O)O)NC5=O)nn2)nn1 (stereo partly specified)	0 (no)
CCCCSC1=C(SCCCC)C(=O)N(CCOCCOCCOCCOCc2cn(C3C(=O)N[C@@H]4Cc5ccc(c(Cl)c5)Oc5cc6cc(c5O)Oc5ccc(cc5Cl)[C@@H](O[C@@H]5O[C@H](CO)[C@@H](O)[C@H](O)[C@H]5NC(C)=O)[C@H]5NC(=O)[C@H](NC(O)[C@@H]6NC(=O)[C@@H](NC4=O)c4cc(O)cc(c4)Oc4cc3ccc4O)c3ccc(O)c(c3)-c3c(O)cc(O)cc3[C@H](C(=O)O)NC5=O)nn2)C1=O (stereo partly specified)	0 (no)
CCCCCCCCCCCCS(=O)(=O)N[C@H]1C(=O)N[C@@H]2Cc3ccc(c(Cl)c3)Oc3cc4cc(c3O)Oc3ccc(cc3Cl)[C@@H](O[C@@H]3O[C@H](CO)[C@@H](O)[C@H](O)[C@H]3NC(C)=O)[C@H]3NC(=O)[C@H](NC(O)[C@@H]4NC(=O)[C@@H](NC2=O)c2cc(O)cc(c2)Oc2cc1ccc2O)c1ccc(O)c(c1)-c1c(O)cc(O)cc1[C@H](C(=O)O)NC3=O (stereo partly specified)	1 (yes)

Here's an entry: CCCCSC1=C(SCCCC)C(=O)N(Cc2cn(C3C(=O)N[C@@H]4Cc5ccc(c(Cl)c5)Oc5cc6cc(c5O)Oc5ccc(cc5Cl)[C@@H](O[C@@H]5O[C@H](CO)[C@@H](O)[C@H](O)[C@H]5NC(C)=O)[C@H]5NC(=O)[C@H](NC(O)[C@@H]6NC(=O)[C@@H](NC4=O)c4cc(O)cc(c4)Oc4cc3ccc4O)c3ccc(O)c(c3)-c3c(O)cc(O)cc3[C@H](C(=O)O)NC5=O)nn2)C1=O (stereo partly specified) . Is its EC99 below 10 µM?
0 (no)

Here's an entry: CCCCCCSC1=C(SCCCCCC)C(=O)N([C@H]2C(=O)N[C@@H]3Cc4ccc(c(Cl)c4)Oc4cc5cc(c4O)Oc4ccc(cc4Cl)[C@@H](O[C@@H]4O[C@H](CO)[C@@H](O)[C@H](O)[C@H]4NC(C)=O)[C@H]4NC(=O)[C@H](NC(O)[C@@H]5NC(=O)[C@@H](NC3=O)c3cc(O)cc(c3)Oc3cc2ccc3O)c2ccc(O)c(c2)-c2c(O)cc(O)cc2[C@H](C(=O)O)NC4=O)C1=O (stereo partly specified) . Is its EC99 below 10 µM?
1 (yes)

Data credit: ChEMBL document CHEMBL4270630
